pKd: −log10 of the molar value.
// merged dataset of pKd values, system = Macrophage colony-stimulating factor 1 receptor (Homo sapiens, UniProt P07333), multiple refs

Compound	pKd
Cc1nc(C(F)(F)F)c(C(=O)Nc2ccc(-c3cn4c(n3)sc3cc(OCCN5CCOCC5)ccc34)cc2)s1	< 6.00
CN(C)C(=O)CN1CCC(Oc2ccc(C(=O)Nc3ccc(NC(=O)Nc4cc(C(C)(C)C)on4)cc3)nc2)C1 (centres unmarked)	> 8.52
CC(C)(C)Sc1cc(-c2ccc(CC(=O)Nc3cc(C(C)(C)C)on3)cc2)cnc1N	6.30 to 7.00

# pKd measured on Macrophage colony-stimulating factor 1 receptor (Homo sapiens, UniProt P07333) for item `CN1C(C)(C)CC(Oc2ccc(C(=O)Nc3ccc(NC(=O)Nc4cc(C(C)(C)C)on4)cc3)nn2)CC1(C)C` = > 8.52
